System: CCRIS mutagenicity, Ames/micronucleus/aberration tests
Test Description: CCRIS mutagenicity studies
Experimental Context: Test System: AMES SALMONELLA TYPHIMURIUM; Strain/Indicator: TA100; Metabolic Activation: RAT, LIVER, S-9, AROCLOR 1254; Method: PREINCUBATION
Active and inactive are the calls of the source. No rule for the calls is given here.
Reported Endpoint: mutagenic call

Cc1cnc(C)cn1; inactive; negative
C[C@]12CCC(=O)C=C1[C@@H]1C[C@@H]1[C@H]1[C@@H]3[C@@H]4C[C@@H]4[C@@]4(CCC(=O)O4)[C@@]3(C)CC[C@@H]12; inactive; negative

###

Test system: CCRIS mutagenicity, Ames/micronucleus/aberration tests
Test Description: CCRIS mutagenicity studies
Experimental Context: Test System: AMES SALMONELLA TYPHIMURIUM; Strain/Indicator: TA102; Metabolic Activation: NONE; Method: STANDARD PLATE
Active and inactive are the calls of the source. How the calls were made is not given here.
Reported Endpoint: mutagenic call

CN1CCN(c2c(F)cc3c(=O)c(C(=O)O)cn4c3c2OCN4C)CC1; active; positive
CC(=O)N[C@@H](CS)C(=O)O; inactive; negative
Cc1c(N(C)CS(=O)(=O)O)c(=O)n(-c2ccccc2)n1C; inactive; negative
O=C(NO)c1ccc(O)c(O)c1; inactive; negative
CCC(CCC(C)=O)COC(=O)c1ccccc1C(=O)O (stereo not drawn); inactive; negative

mutagenic call reading for C=CCc1ccc(O)c(O)c1 : active; positive

mutagenic call reading for NNc1nnc(NN)c2ccccc12 : active; positive

###

Test system: CCRIS mutagenicity, Ames/micronucleus/aberration tests
Test Description: CCRIS mutagenicity studies
Experimental Context: Test System: AMES SALMONELLA TYPHIMURIUM; Strain/Indicator: TA100; Metabolic Activation: NONE; Method: STANDARD PLATE
Calls of active or inactive are those of the source. No rule for the calls is given here.
Respond only with the outcome that fits, drawn from active, inactive

Example entries and their recorded answers appear below.
Nc1cc(CCO)c(N)c([N+](=O)[O-])c1; inactive
ClC(Cl)C(Cl)Cl; active
CON(C)C(=O)Nc1ccc(Br)cc1; inactive
CN[C@H]1CCc2cc(OC)c(OC)c(OC)c2-c2ccc(OC)c(=O)cc21; inactive
S=C([S-])NCCNC(=S)[S-].[Zn+2]; inactive
CC[C@H](c1ccc(O)cc1)[C@@H](CC)c1ccc(O)cc1; inactive
CC1CNC(=O)N1c1ncc([N+](=O)[O-])s1 (centres undefined); active
O=C1CN=C(c2ccccc2)c2cc([N+](=O)[O-])ccc2N1; inactive

// outcome(item) with item = CN(N=O)C(=O)c1c(N(C)C(=O)OC(C)(C)C)ncn1C
active

// outcome(item) with item = CN(C)CCCNc1c2ccccc2nc2ccccc12
inactive

// outcome(item) with item = O=[N+]([O-])c1ccc2ccc3cc4c(c5ccc1c2c35)CCC=C4
active

// outcome(item) with item = C=CCc1ccc(O)c(O)c1
inactive

// outcome(item) with item = Nc1cc([N+](=O)[O-])c(N)cc1F
inactive

// outcome(item) with item = CCCCCCCCCCCCCCCC(=O)OC/C=C(C)/C=C/C=C(C)/C=C/C1=C(C)CCCC1(C)C
inactive

// outcome(item) with item = O=C1c2ccccc2C(=O)c2c(O)ccc(O)c21
inactive

// outcome(item) with item = CC(N)=O
inactive
